- System: SH-4 (Melanoma)
- procedure-summary: Bliss excess, mean over the matrix (fraction); higher = more synergy;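 note: after 72 h of two-drug dosing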
measured-endpoint: Bliss excess
No unit in the answer, only the number.

Q. Fill in: Bliss excess of CC1(C)CCC(CN2CCN(c3ccc(C(=O)NS(=O)(=O)c4ccc(NCC5CCOCC5)c([N+](=O)[O-])c4)c(Oc4cnc5[nH]ccc5c4)c3)CC2)=C(c2ccc(Cl)cc2)C1 [Venetoclax] + C[C@@H]1COCCN1C2=NC(=NC(=C2)C3(CC3)[S@](=N)(=O)C)C4=C5C=CNC5=NC=C4 [AZD6738] (first compound max 1 µM, 7x7, partner max 10 µM) is ___
A. -0.022

Q. Can you look up the measured Bliss excess of Cc1nc(Nc2ncc(C(=O)Nc3c(C)cccc3Cl)s2)cc(N2CCN(CCO)CC2)n1 [Dasatinib] + CC(=O)Nc1cccc(-n2c(=O)n(C3CC3)c(=O)c3c(Nc4ccc(I)cc4F)n(C)c(=O)c(C)c32)c1 [Trametinib] (first compound max 2 µM, 7x7, partner max 1 µM) for me?
A. -0.0721

Q. Quick one: Bliss excess for Cc1c2c(nn1C)CSCc1cc(n(C)n1)CSc1cc(c3ccccc3c1)OCCCc1c(C(=O)O)n(C)c3c-2c(Cl)ccc13 [AZD5991] + CN(C)CCCOc1ccc(-c2ccc3ncc4c(c3c2)n(C2CCOCC2)c(=O)n4C)cn1 [AZD0156] (first compound max 1 µM, 7x7, partner max 1 µM) ?
A. 0.0088

Q. Can you look up the measured Bliss excess of C[C@@H](c1ccc2nccn2c1)n1nnc2ncc(-c3cnn(C)c3)nc21 [Savolitinib] + CC1(C)CCC(CN2CCN(c3ccc(C(=O)NS(=O)(=O)c4ccc(NCC5CCOCC5)c([N+](=O)[O-])c4)c(Oc4cnc5[nH]ccc5c4)c3)CC2)=C(c2ccc(Cl)cc2)C1 [Venetoclax] (first compound max 1 µM, 7x7, partner max 1 µM) for me?
A. -0.0535

Q. Requested read-out: Bliss excess. Entry: Cc1cc2ncnn2cc1Nc1ncc2c(n1)n(C1CCOCC1)c(=O)n2C [AZD7648] + C=CCn1c(=O)c2cnc(Nc3ccc(N4CCN(C)CC4)cc3)nc2n1-c1cccc(C(C)(C)O)n1 [AZD1775] (first compound max 10 µM, partner max 1 µM)
A. 0.0332

Q. # Bliss excess lookup, item CCN(CCO)CCCOc1ccc2c(Nc3cc(CC(=O)Nc4cccc(F)c4)[nH]n3)ncnc2c1 [AZD2811] + C[C@@H]1COCCN1C2=NC(=NC(=C2)C3(CC3)[S@](=N)(=O)C)C4=C5C=CNC5=NC=C4 [AZD6738] (first compound max 1 µM, 7x7, partner max 10 µM)
A. -0.0474

Q. Bliss excess lookup needed for Cc1cc2ncnn2cc1Nc1ncc2c(n1)n(C1CCOCC1)c(=O)n2C [AZD7648] + COc1cc([C@@H]2c3cc4c(cc3[C@@H](O[C@@H]3O[C@@H]5CO[C@@H](C)O[C@H]5[C@H](O)[C@H]3O)[C@H]3COC(=O)[C@H]23)OCO4)cc(OC)c1O [Etoposide] (first compound max 10 µM, 7x7, partner max 10 µM) , thanks.
A. 0.0744

----------
I'd be grateful if you could share measured Bliss excess for these entries.
- Test system: CAL-54 (Kidney Carcinoma)
- procedure-summary: Bliss excess, mean over the matrix (fraction); higher = more synergy
// keep it numeric: no unit symbol after the value

Q. Query (compound): Cc1nc(-c2cn3c(n2)-c2ccc(-c4cnn(C(C)(C)C(N)=O)c4)cc2OCC3)n(C(C)C)n1 [Taselisib] + O=C(Nc1ccc2[nH]nc(-c3ccncc3)c2c1)[C@@H]1CCN(CC(=O)N2CCN(c3ccc(-c4ncccn4)cc3)CC2)C1 [SCH772984] (first compound max 10 µM, 7x7, partner max 5 µM) ; field requested: Bliss excess
A. -0.0024

Q. # query: Bliss excess of entry CN(CCO)CC[C@H](CSc1ccccc1)Nc1ccc(S(=O)(=O)NC(=O)c2ccc(N3CCC([C@@H](O)c4ccccc4-c4ccc(Cl)cc4)CC3)cc2)cc1S(=O)(=O)C(F)(F)F [AZD4320] + C[C@@H](Nc1cc(F)cc(F)c1)c1cc(C(=O)N(C)C)cc2c(=O)cc(N3CCOCC3)oc12 [AZD8186] (first compound max 1 µM, 7x7, partner max 3 µM)
A. 0.0533

Q. Which Bliss excess value belongs to Cn1cnc2c(F)c(Nc3ccc(Br)cc3Cl)c(C(=O)NOCCO)cc21 [Selumetinib] + C[C@@H]1COCCN1C2=NC(=NC(=C2)C3(CC3)[S@](=N)(=O)C)C4=C5C=CNC5=NC=C4 [AZD6738] (first compound max 10 µM, 7x7, partner max 10 µM) ?
A. -0.0083
